System: biotinyl-Ile-oxazolone
Experiment: self-aminoacylation, catalytic enhancement (BIO) (fold over background); higher = more active; k-Seq, kA / k0A0; sequences stand for … in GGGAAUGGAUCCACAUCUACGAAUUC…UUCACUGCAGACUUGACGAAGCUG
Fewer inactive variants are shown than the library holds.
OUTCOME_MEASURE: self-aminoacylation
The response must contain the number and no unit.

Some solved cases for reference:
{"ORDERED_RESIDUES": "CUUGUUCAAACAAUCGGUCUG [Fam1A.1 aminoacylation ribozyme variant]", "self-aminoacylation": 1.07}
{"ORDERED_RESIDUES": "AUUACCCUCGUCAUCUAGUGA [Fam2.1 aminoacylation ribozyme variant]", "self-aminoacylation": 2.3}
{"ORDERED_RESIDUES": "AUUUCCCUGGUCAUCGAAUGA [Fam2.1 aminoacylation ribozyme variant]", "self-aminoacylation": 1.09}
{"ORDERED_RESIDUES": "UUACUUCAAACAAUCGGUCUC [Fam1A.1 aminoacylation ribozyme variant]", "self-aminoacylation": 1.2}
{"ORDERED_RESIDUES": "CUACUUGAAACUAUCGGUCUG [Fam1A.1 aminoacylation ribozyme variant]", "self-aminoacylation": 1.03}
{"ORDERED_RESIDUES": "AUGACCCCGGUCAUCGAGUGA [Fam2.1 aminoacylation ribozyme variant]", "self-aminoacylation": 3.51}

Let us move to another entry and its self-aminoacylation.
Please report the recorded self-aminoacylation for AUUACCCUUGACAUCGAGUGA [Fam2.1 aminoacylation ribozyme variant] . 4.31
